The reader will find reported MIC values listed item by item below.
Tested on: Staphylococcus aureus
Assay: Antibacterial activity against […] Staphylococcus aureus ATCC 25923 after 18 hrs by MTT assay
Assay type: functional
Conditions: ATCC 25923, 18 h
RECORDED_METRIC: MIC

# COMPOUND, RECORDED_METRIC, VALUE_OBSERVED
data = [
    ("COc1c(O)ccc2oc3ccccc3c(=O)c12", "MIC", "64 µg/mL"),
    ("CCn1cc(C(=O)O)c(=O)c2cc(F)c(N3CCNCC3)cc21", "MIC", "0.5 µg/mL"),
    ("COc1cc([C@@H]2Oc3c(OC)cc4c(=O)c5ccccc5oc4c3O[C@H]2CO)ccc1O", "MIC", "> 512 µg/mL"),
    ("COc1cc(OC)c2c(=O)c3cccc(O)c3oc2c1", "MIC", "128 µg/mL"),
    ("COc1cc2c(=O)c3ccccc3oc2c(O)c1OC", "MIC", "128 µg/mL"),
    ("CCCCC(C(=O)OC)[C@]12C(=O)[C@](CC=C(C)C)(C[C@H](CC=C(C)C)C1(C)C)C(=O)C(C(=O)CCC)=C2O (stereo partly drawn)", "MIC", "1 µg/mL"),
    ("COc1cc2c(=O)c3ccccc3oc2c(O)c1O", "MIC", "64 µg/mL"),
    ("COc1cc2c(=O)c3ccccc3oc2cc1O", "MIC", "64 µg/mL"),
]

---

Tested on: Staphylococcus aureus
Experiment: Antibacterial activity against […] Staphylococcus aureus EMRSA-15 after 18 hrs by MTT assay
Format: functional
Conditions: EMRSA-15, 18 h
Entries annotated with measured MIC
RECORDED_METRIC: MIC (µg/mL)

# COMPOUND, RECORDED_METRIC, COMPARISON_SYMBOL, VALUE_OBSERVED
records = [
    ("COc1cc([C@@H]2Oc3c(OC)cc4c(=O)c5ccccc5oc4c3O[C@H]2CO)ccc1O", "MIC", ">", 512),
    ("CCCCC(C(=O)OC)[C@]12C(=O)[C@](CC=C(C)C)(C[C@H](CC=C(C)C)C1(C)C)C(=O)C(C(=O)CCC)=C2O (stereo partly drawn)", "MIC", "=", 1),
    ("COc1c(O)ccc2oc3ccccc3c(=O)c12", "MIC", "=", 64),
    ("COc1cc2c(=O)c3ccccc3oc2c(O)c1OC", "MIC", ">", 512),
    ("COc1cc2c(=O)c3ccccc3oc2c(O)c1O", "MIC", "=", 64),
    ("CCn1cc(C(=O)O)c(=O)c2cc(F)c(N3CCNCC3)cc21", "MIC", "=", 0.5),
    ("COc1cc2c(=O)c3ccccc3oc2cc1O", "MIC", "=", 64),
    ("COc1cc(OC)c2c(=O)c3cccc(O)c3oc2c1", "MIC", ">", 512),
]
